# experimental-details: Tissue distribution of THP, DHC and protopine in rat tissues after gastric gavage administration (HPLC-UV, non-compartmental analysis)
# Type: in vivo, Wistar male rats
# assay-conditions: male, Wistar, po, 6.45 mg/kg, rat liver, read-out: MRT of THP
reported-endpoint: MRT (h)

compound: COc1cc2c(cc1OC)[C@@H]1Cc3ccc(OC)c(OC)c3CN1CC2 [THP, tetrahydropalmatine]
reported-endpoint: MRT
recorded-result: 3.99

---

# experimental-details: Tissue distribution of THP, DHC and protopine in rat tissues after gastric gavage administration (HPLC-UV, non-compartmental analysis)
# Format: in vivo, Wistar male rats
# assay-conditions: male, Wistar, po, 4.52 mg/kg, rat hippocampus, read-out: Tmax of protopine
reported-endpoint: Tmax (h)

compound: CN1CCc2cc3c(cc2C(=O)Cc2ccc4c(c2C1)OCO4)OCO3 [protopine]
recorded-result: 2.09
